tested on: CIT; settings: concentration: 1 μM, replicates: in singlicate; n = 1;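 note: KINOMEscan kinase panel screen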
Measured %Inh, listed per entry.
Number only, in %; omit the unit.

Below: 2 compounds and their reported %Inh.
{"compound": "Cc1ccc(-c2ccc3occ(-c4ccc(S(C)=O)cc4)c3c2)nn1 (centres unmarked)", "recorded-number": 0}
{"compound": "CN1CCN(Cc2ccc(NC(=O)Nc3ccc(N(C)c4ccnc(Nc5ccc(CS(C)(=O)=O)cc5)n4)cc3)cc2)CC1.Cl", "recorded-number": 23}

%Inh in this record for Cn1cc(-c2ccc3c(c2)CCN3C(=O)Cc2cc(F)cc(C(F)(F)F)c2)c2c(N)ncnc21 : 28

Quick note, %Inh for COc1cccc(C2=C(Nc3cccc(O)c3)C(=O)NC2=O)c1 landed at 4

The compound listed as CS(=O)(=O)c1cccc(CNc2nc(Nc3ccc4c(c3)CCC(=O)N4)ncc2C(F)(F)F)c1 has a reported %Inh of 37

For record CN(c1ccc2c(c1)nc(NCc1ccccc1)n2C)c1ccnc(Nc2ccc(CS(C)(=O)=O)cc2)n1.Cl the listed %Inh is 55

%Inh measured on N#CC1(c2cccc(C(=O)Nc3cccc(Oc4ccc5nc(NC(=O)C6CC6)sc5n4)c3)c2)CC1 = 94.2

The compound COC(=O)Nc1nc2ccc(Oc3ccc(NC(=O)Nc4cc(C(F)(F)F)ccc4F)cc3)cc2[nH]1.Cl showed %Inh equal to 87

Please fill in: %Inh reported for Nc1ncc(-c2ccc3nccc(-c4ccncc4)c3c2)cc1S(=O)(=O)N1CCCCC1 = 31

Lab note: measured %Inh of COc1cc(Nc2nccc(N3CCC(NS(=O)(=O)c4ccc(NC(C)=O)cc4)CC3)n2)cc(OC)c1OC was 17

O=C(Nc1n[nH]c2cc(-c3cccs3)ccc12)C1CC1 has a reported %Inh of 24

%Inh for CCn1c(-c2nonc2N)nc2c(-c3ccccc3)ncc(OCCCN)c21.O=C(O)C(F)(F)F.O=C(O)C(F)(F)F is 98.9

Given item Cc1ccc(O)cc1Nc1ccnc2cc(-c3ccc(CN4CCCCC4)o3)ccc12 , the value recorded as its %Inh is 40

Form field %Inh, entry CN(C)CCNS(=O)(=O)c1ccc(-c2ccnc3[nH]ccc23)cc1 : 27

Notebook: CN(C)CCOc1ccc(-c2cc(-c3ccc(Cl)c(O)c3)c(-c3ccncc3)[nH]2)cc1.Cl.Cl , %Inh read as 90.8

// COc1ccc(NC(=O)c2ccoc2)cc1-c1ccc(C(=O)NCC2CC2)cc1 : %Inh value = 0

// %Inh lookup, compound = O=C1NC(=O)C(c2ccccc2Cl)=C1Nc1cccc(Cl)c1 , result: 7

====

Each entry below carries its recorded %Inh.
system: TIE2; construct: gene TEK; details: concentration: 1 μM, replicates: in singlicate; n = 1
A bare number is not enough; add the unit after it.

Examples with their reported %Inh follow.
{"compound": "COc1cccc(-c2nc(-c3ccccc3)[nH]c2-c2ccncc2)c1", "result": "0%"}
{"compound": "CC(=O)Nc1cn2nc(Oc3cccc(NC(=O)c4cccc(C(F)(F)F)c4)c3)ccc2n1", "result": "65%"}
{"compound": "COc1cccc2c(-c3ccncc3)c(-c3ccc(F)cc3)nn12", "result": "0%"}

Please examine the following record next.
With TIE2 as the test system, c1ccc(Oc2ccc(Nc3ccnc4cc(-c5ccc(CN6CCCCC6)o5)ccc34)cc2)nc1 showed %Inh of 0%

====

tested on: EPHA7; details: concentration: 1 μM, replicates: in singlicate; n = 1
measured-property: %Inh (%)
Dear colleague, please return just the value in %, with no unit written.

Solved entries (count: 8):
{"molecule": "Cn1cc(-c2ccc3c(c2)CCN3C(=O)Cc2cc(F)cc(F)c2F)c2c(N)ncnc21", "system-name": "EPHA7", "result-unit": "%", "%Inh": 3}
{"molecule": "COc1cccc(CC(=O)N2CCc3cc(-c4cn(C)c5ncnc(N)c45)ccc32)c1", "system-name": "EPHA7", "result-unit": "%", "%Inh": 10}
{"molecule": "Cc1ccc(O)cc1Nc1ccnc2cc(-c3ccc(CN4CCCCC4)o3)ccc12", "system-name": "EPHA7", "result-unit": "%", "%Inh": 0}
{"molecule": "Cc1ccc(C)c(NC(=O)Nc2ccc(C)c(-c3ccc(C(=O)Nc4ccncc4)cc3)c2)c1", "system-name": "EPHA7", "result-unit": "%", "%Inh": 3}
{"molecule": "N#CC1(c2cccc(C(=O)Nc3cccc(Oc4ccc5nc(NC(=O)C6CC6)sc5n4)c3)c2)CC1", "system-name": "EPHA7", "result-unit": "%", "%Inh": 0}
{"molecule": "COC(=O)Nc1nc2cc(Oc3ccc(NC(=O)Nc4cccc(SC)c4)cc3)ccc2[nH]1.Cl", "system-name": "EPHA7", "result-unit": "%", "%Inh": 54}
{"molecule": "Cl.Cl.NC(CNC(=O)c1cc(Br)c(-c2ccnc3[nH]ccc23)s1)c1ccccc1 (centres unmarked)", "system-name": "EPHA7", "result-unit": "%", "%Inh": 10}
{"molecule": "COc1ccc(NC(=O)c2ccoc2)cc1-c1ccc(C(=O)NCC2CC2)cc1", "system-name": "EPHA7", "result-unit": "%", "%Inh": 0}

// %Inh value for Cl.N#CCc1ccc(Nc2nccc(Nc3ccc(Oc4ccccc4)cc3)n2)cc1 : 0

molecule CC(C)c1nc(-c2ccc(F)c(NS(=O)(=O)c3c(F)cccc3F)c2)c(-c2ccnc(Nc3ccc(N4CCOCC4)nc3)n2)s1 , %Inh observed: 12

====

system: DCAMKL1; construct: gene DCLK1; settings: concentration: 1 μM, replicates: in singlicate; n = 1
measured-property: %Inh (%)
Your answer is read as %, so omit the unit and give the number.

Example cases with answers are listed next.
{"compound": "COc1cc(Nc2nccc(N3CCC(NS(=O)(=O)c4ccc(NC(C)=O)cc4)CC3)n2)cc(OC)c1OC", "result-unit": "%", "%Inh": 0}
{"compound": "Cn1cc(-c2ccc3c(c2)CCN3C(=O)Cc2cc(F)cc(F)c2F)c2c(N)ncnc21", "result-unit": "%", "%Inh": 0}
{"compound": "COc1cccc(NC(=O)NCCNc2ccnc(Nc3ccc(F)cc3)n2)c1", "result-unit": "%", "%Inh": 9}
{"compound": "CC(C)NCC(Cc1ccccc1)NC(=O)c1cc(Br)c(-c2ccnc3[nH]ccc23)s1.Cl.Cl (stereo not drawn)", "result-unit": "%", "%Inh": 34}
{"compound": "Cc1ccc(NC(=O)c2cccc(N3CCCCC3)c2)cc1-c1ccc(C(=O)NCC2CC2)cc1", "result-unit": "%", "%Inh": 16}

What the record says about Cc1cccc(Nc2nc(N[C@H]3CCCC[C@H]3N)ncc2C(N)=O)c1.Cl : %Inh is 32

%Inh recorded for this compound, CNc1nccc(-c2ccc3c(N)n[nH]c3c2)n1 , is 0

Looking up Cc1ccc(-c2ccc3occ(-c4ccc(S(C)=O)cc4)c3c2)nn1 (stereo not drawn) , I found its %Inh recorded as 4

Value of %Inh reported for the compound COc1ccc(C2=C(Nc3cccc(O)c3)C(=O)NC2=O)cc1 is 13

%Inh reading for NCCC(NC(=O)c1cc(Br)c(-c2ccnc3[nH]ccc23)s1)c1ccccc1.O=C(O)C(F)(F)F.O=C(O)C(F)(F)F (stereo not drawn) : 25

GET /value?item= N#CC1(c2cccc(C(=O)Nc3cccc(Oc4ccc5nc(NC(=O)C6CC6)sc5n4)c3)c2)CC1 &field=%Inh returns 3

Form field %Inh, entry Cl.O=C(Nc1ccc(Oc2ccc3[nH]c(NC(=O)c4ccco4)nc3c2)cc1)Nc1cc(C(F)(F)F)ccc1F : 19

So for CC(C)c1nc(-c2ccc(F)c(NS(=O)(=O)c3c(F)cccc3F)c2)c(-c2ccnc(Nc3ccc(N4CCOCC4)nc3)n2)s1 , the logged %Inh turned out to be 12

====

test system: CDC2L2; details: concentration: 1 μM, replicates: in singlicate; n = 1
Reported %Inh is given for each of the following molecules.
The figure you give is taken to be in %; do not add the unit.

{"molecule": "O=C(Nc1c(F)cccc1F)c1cc(C(=O)c2ccccc2F)c[nH]1", "measured-property": "%Inh", "recorded-number": 0}
{"molecule": "O=C(Nc1n[nH]c2nc(-c3ccccc3O)ccc12)C1CC1", "measured-property": "%Inh", "recorded-number": 0}
{"molecule": "Cl.Cl.NCC(NC(=O)c1cc(-c2cccnc2)c(-c2ccnc3[nH]ccc23)s1)c1ccccc1 (stereo not drawn)", "measured-property": "%Inh", "recorded-number": 9}

Moving on to the next molecule.
Value sought: %Inh, system CDC2L2, item Cn1cc(-c2cnc(N)c3c(-c4ccc5c(c4)CCN5C(=O)Cc4ccccc4)csc23)cn1 . Result: 1

====

system: p38-gamma; construct: gene MAPK12; settings: concentration: 1 μM, replicates: in singlicate; n = 1
measured-property: %Inh (%)
Give just the numeric value; % need not be written.

{"compound": "COc1ccc(NC(=O)c2ccoc2)cc1-c1ccc(C(=O)NCC2CC2)cc1", "result-unit": "%", "%Inh": 0}
{"compound": "COc1cc(Nc2nccc(N3CCC(NC(=O)Nc4ccc5c(c4)OCO5)C3)n2)cc(OC)c1OC (centres unmarked)", "result-unit": "%", "%Inh": 0}
{"compound": "N#Cc1cnc2cc(-c3cnc(CNCCN4CCOCC4)s3)ccc2c1Nc1ccc(Oc2ccccc2)cc1", "result-unit": "%", "%Inh": 0}
{"compound": "CN(c1ccc(NC(=O)Nc2cccc(Cl)c2)cc1)c1ccnc(N)n1.Cl", "result-unit": "%", "%Inh": 0}
{"compound": "CS(=O)(=O)c1cccc(CNc2nc(Nc3ccc4c(c3)CCC(=O)N4)ncc2C(F)(F)F)c1", "result-unit": "%", "%Inh": 4}

%Inh for p38-gamma with input CC(C)c1nc(-c2cccc(NS(=O)(=O)c3c(F)cccc3F)c2)c(-c2ccnc(Nc3ccc(N4CCOCC4)nc3)n2)s1.Cl equals 0

Entry CCOc1nccc(-c2c(-c3ccc(F)cc3)ncn2C2CCNCC2)n1 ; assay system p38-gamma; %Inh recorded at 43

The reported p38-gamma %Inh of CN(c1ccc(NC(=O)N2CCN(CCCN3CCOCC3)CC2)cc1)c1ccnc(Nc2ccc(CS(C)(=O)=O)cc2)n1.Cl is 41

Result for c1ccc(Oc2ccc(Nc3ccnc4cc(-c5ccc(CN6CCCCC6)o5)ccc34)cc2)nc1 , tested on p38-gamma, %Inh: 0

# %Inh measured on p38-gamma for item Cc1ccc(C)c(NC(=O)Nc2ccc(C)c(-c3ccc(C(=O)Nc4ccncc4)cc3)c2)c1 = 0

// returns %Inh for Cc1ccccc1CC(=O)N1CCc2cc(-c3cn(C)c4ncnc(N)c34)ccc21 with p38-gamma; value = 0

Per the reported p38-gamma data, Cn1cc(-c2cnc(N)c3c(-c4ccc5c(c4)CCN5C(=O)Cc4ccccc4)csc23)cn1 has %Inh of 14

The measured %Inh that Cc1ccc(O)cc1Nc1ccnc2ccc(C(C)(C)C)cc12 showed for p38-gamma is 41

Entry Cl.Cl.NC(CNC(=O)c1cc(Br)c(-c2ccnc3[nH]ccc23)s1)c1ccccc1 (centres unmarked) : %Inh on p38-gamma = 50

The measured %Inh that O=C(Nc1n[nH]c2nc(-c3ccccc3)ccc12)C1CC1 showed for p38-gamma is 2

Short answer on p38-gamma for COc1cccc(CC(=O)N2CCc3cc(-c4cn(C)c5ncnc(N)c45)ccc32)c1 , %Inh: 0

Value sought: %Inh, system p38-gamma, item Cc1cc(-c2c(-c3ccc(F)cc3)ncn2CCCN2CCOCC2)nc(N)n1 . Result: 27
